Data provenance is patent US10919852B2.

IC50 reference
biological target: human PD-L1 / Human PD-1 (Homo sapiens (Human), UniProt Q9NZQ7); test: Enzyme-Linked Immunosorbent Assay (ELISA), PD-1/PD-L1 binding; conditions: plate-coated human PD-L1, biotinylated human PD-1
Sequence (Q9NZQ7 19-239): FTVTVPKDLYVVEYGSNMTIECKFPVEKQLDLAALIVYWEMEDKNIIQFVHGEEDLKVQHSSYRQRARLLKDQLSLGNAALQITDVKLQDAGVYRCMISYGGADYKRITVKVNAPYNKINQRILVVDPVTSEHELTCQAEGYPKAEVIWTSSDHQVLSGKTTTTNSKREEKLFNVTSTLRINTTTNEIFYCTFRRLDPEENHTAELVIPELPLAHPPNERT
measured quantity: IC50

CCOc1cc(O[C@H]2CCc3c(-c4cccc(OCCCN5CC[C@@H](O)C5)c4C)cccc32)c(Cl)cc1CN1CCCC[C@H]1C(=O)O
5 to 500 nM
CCN1CCC(COc2cccc(-c3cccc4c3CC[C@@H]4Oc3cc(OCc4cncc(C#N)c4)c(CN[C@H]4CCC(=O)NC4)cc3Cl)c2Cl)C1 (stereo partly shown)
< 5 nM
Cc1c(OCCCN2CCC(F)CC2)cccc1-c1cccc2c1CC[C@@H]2Oc1cc(OCc2cncc(C#N)c2)c(CN[C@H](C(=O)O)[C@@H](C)O)cc1Cl
< 5 nM
CCOc1cc(O[C@H]2CCc3c(-c4cccc(OCCCN5CCC5(C)C)c4C)cccc32)c(Cl)cc1CNCCS(=O)(=O)O
5 to 500 nM

---

pIC50 reference
target: human PD-L1 / Human PD-1 (Homo sapiens (Human), UniProt Q9NZQ7); test: Enzyme-Linked Immunosorbent Assay (ELISA), PD-1/PD-L1 binding; details: plate-coated human PD-L1, biotinylated human PD-1
pIC50: −log10 of the molar value.
measured quantity: pIC50

Cc1c(OCCCN2[C@H](C)CCC[C@@H]2C)cccc1-c1cccc2c1CC[C@@H]2Oc1cc(OCc2cc(C#N)cc(C#N)c2)c(CNC[C@H]2CCC(=O)N2)cc1Cl
6.30 to 8.30
CCOc1cc(O[C@H]2CCc3c(-c4cccc(OCCCN5CCC(O)CC5)c4C)cccc32)c(Cl)cc1CN[C@H](C(=O)O)[C@@H](C)O
> 8.30
Cc1c(OCCCN2CC[C@@H](F)C2)cccc1-c1cccc2c1CC[C@@H]2Oc1cc(OCc2cncc(C#N)c2)c(CN[C@@H]2CCCC[C@@H]2O)cc1Cl
> 8.30
CCOc1cc(O[C@H]2CCc3c(-c4cccc(OCCCN5CCC5(C)C)c4C)cccc32)c(Cl)cc1CNCCCS(=O)(=O)O
6.30 to 8.30
Cc1c(OCCCN2CCC(C)(F)CC2)cccc1-c1cccc2c1CC[C@@H]2Oc1cc(OCc2cc(C#N)cc(C#N)c2)c(CN[C@H]2CCC[C@@H]2O)cc1Cl
6.30 to 8.30
C[C@@H](O)[C@H](NCc1cc(Cl)c(O[C@H]2CCc3c(-c4cccc(OCCCN5CCC(O)CC5)c4F)cccc32)cc1OCc1cncc(C#N)c1)C(=O)O
> 8.30
Cc1c(OCCCN2CCC[C@@H](O)C2)cccc1-c1cccc2c1CC[C@@H]2Oc1cc(OCc2cncc(C#N)c2)c(CN[C@H](C(=O)O)[C@@H](C)O)cc1Cl
> 8.30
N#Cc1cc(C#N)cc(COc2cc(O[C@@H]3c4cccc(-c5cccc(OCCCN6CCC(F)CC6)c5Cl)c4C[C@H]3F)c(Cl)cc2CNC[C@H]2CCC(=O)N2)c1
6.30 to 8.30
Cc1c(OCCCN2CC3(CCC3)C2)cccc1-c1cccc2c1CC[C@@H]2Oc1cc(OCc2cc(C#N)cc(C#N)c2)c(CNC[C@H]2CCC(=O)N2)cc1Cl
6.30 to 8.30
Cc1c(OCCCN2CCCCC2)cccc1-c1cccc2c1CC[C@@H]2Oc1cc(OCc2cc(C#N)cc(C#N)c2)c(CNC[C@H]2CCC(=O)N2)cc1Cl
> 8.30
N#Cc1cncc(COc2cc(O[C@H]3CCc4c(-c5cccc(OCCCN6CC7(CC(O)C7)C6)c5Cl)cccc43)c(Cl)cc2CN[C@@H]2CCC[C@@H]2O)c1
> 8.30
N#Cc1cncc(COc2cc(O[C@H]3CCc4c(-c5cccc(OCCCN6CCC(F)CC6)c5Cl)cccc43)c(Cl)cc2CN2CCNC(=O)C2)c1
6.30 to 8.30
Cc1c(OCCCN2CCC2)cccc1-c1cccc2c1CC[C@@H]2Oc1cc(OCc2cc(C#N)cc(C#N)c2)c(CNC[C@H]2CCC(=O)N2)cc1Cl
> 8.30
